test system: AGS cells; assay: Cell cycle distribution by flow cytometry; type: cell-based, human; conditions: 100 μM, 24 h, Table 11
Param threshold (50) applies to Cell Cycle Distribution G0/G1; output class 1 when value >= threshold, class 0 when value < threshold.

// known answers, use as guide
Problem: Entry `COc1ccc(-c2oc3c(OC)c(OC)c(OC)c(O)c3c(=O)c2OC)cc1OC` : is its Cell Cycle Distribution G0/G1 no less than 50?
Result: class 0

Problem: Entry COc1cc(-c2cc(=O)c3c(OC)c(OC)c(OC)c(OC)c3o2)cc(OC)c1OC [F, 5,6,7,8,3′,4′,5′-heptamethoxyflavone, reference compound] : is its Cell Cycle Distribution G0/G1 no less than 50?
Result: class 1

Continuing:
Problem: Entry COc1ccc(-c2oc3c(OC)c(OC)c(OC)c(OC)c3c(=O)c2OC)cc1OC [D, 3,5,6,7,8,3,4-heptamethoxyflavone, reference compound] : is its Cell Cycle Distribution G0/G1 no less than 50?
Result: class 1

Problem: Entry COc1ccc(-c2cc(=O)c3c(OC)c(OC)c(OC)c(OC)c3o2)cc1OC [Compound A, 5,6,7,8,3′,4′-hexamethoxyflavone, reference compound] : is its Cell Cycle Distribution G0/G1 no less than 50?
Result: class 1

Problem: Entry `COc1ccc(-c2cc(=O)c3c(OC)c(OC)c(OC)c(OC)c3o2)cc1O` : is its Cell Cycle Distribution G0/G1 no less than 50?
Result: class 1

###

tested on: COLO205 cells; experiment: Cell cycle distribution by flow cytometry; format: cell-based, human; details: COLO205 cells, 100 μM, 24 h, Table 12
Here, each record is paired with measured Cell Cycle Distribution S data.
Please state the value as a number alone, without comment.

Record excerpt, results attached:
Problem: // returns reported Cell Cycle Distribution S for input `COc1ccc(-c2cc(=O)c3c(OC)c(OC)c(OC)c(OC)c3o2)cc1O`
Result: 16.68

Problem: // returns reported Cell Cycle Distribution S for input COc1ccc(-c2oc3c(OC)c(OC)c(OC)c(OC)c3c(=O)c2OC)cc1OC [D, 3,5,6,7,8,3,4-heptamethoxyflavone, reference compound]
Result: 19.12

Problem: // returns reported Cell Cycle Distribution S for input COc1ccc(-c2cc(=O)c3c(OC)c(OC)c(OC)c(OC)c3o2)cc1OC [Compound A, 5,6,7,8,3′,4′-hexamethoxyflavone, reference compound]
Result: 28.21

Problem: // returns reported Cell Cycle Distribution S for input COc1cc(-c2cc(=O)c3c(OC)c(OC)c(OC)c(OC)c3o2)cc(OC)c1OC [F, 5,6,7,8,3′,4′,5′-heptamethoxyflavone, reference compound]
Result: 12.71

Continuing:
Problem: // returns reported Cell Cycle Distribution S for input `COc1ccc(-c2cc(=O)c3c(O)c(OC)c(OC)c(OC)c3o2)cc1O`
Result: 33.57

Problem: // returns reported Cell Cycle Distribution S for input `COc1c(OC)c(OC)c2c(=O)cc(-c3ccc(O)c(O)c3)oc2c1OC`
Result: 26.53

###

system: HL-60 cells; assay: Cell cycle distribution by flow cytometry; format: cell-based, human; conditions: 100 μM, 24 h, Table 10
Here, each record is paired with measured Cell Cycle Distribution G2/M data.
Please state the value as a number alone, without comment.

Record excerpt, results attached:
Problem: // returns reported Cell Cycle Distribution G2/M for input `COc1ccc(-c2oc3c(OC)c(OC)c(OC)c(OC)c3c(=O)c2O)cc1OC`
Result: 0.51

Problem: // returns reported Cell Cycle Distribution G2/M for input COc1ccc(-c2oc3c(OC)c(OC)c(OC)c(OC)c3c(=O)c2OC)cc1OC [D, 3,5,6,7,8,3,4-heptamethoxyflavone, reference compound]
Result: 0.47

Problem: // returns reported Cell Cycle Distribution G2/M for input COc1ccc(-c2cc(=O)c3c(OC)c(OC)c(OC)c(OC)c3o2)cc1OC [Compound A, 5,6,7,8,3′,4′-hexamethoxyflavone, reference compound]
Result: 7.35

Continuing:
Problem: // returns reported Cell Cycle Distribution G2/M for input `COc1ccc(-c2cc(=O)c3c(OC)c(OC)c(OC)c(OC)c3o2)cc1O`
Result: 13.24

Problem: // returns reported Cell Cycle Distribution G2/M for input `COc1c(OC)c(OC)c2c(=O)cc(-c3ccc(O)c(O)c3)oc2c1OC`
Result: 25.94

Each recorded value in this set is attributed to patent US20140039044A1.
